Reported LogP values for the following compounds.
Assay: Measurement of logP values by HPLC on reversed phase columns (EEC directive 79/831 Annex V.A8)
Type: physicochemical
Details: method [a]: pH 2,7, 0.1% formic acid in water / acetonitrile, linear gradient 10% to 95% acetonitrile

For orientation, consider the following solved cases.
Cn1nnnc1C(=NOCc1csc(NC(=O)C2(C)CC(c3ccccc3)=NO2)n1)c1ccccc1 (centres unmarked) [Example 13]
3.6^[a]
Cn1nnnc1C(=NOCc1cccc(NC(=O)C2(C)CC(c3ccccc3)=NO2)n1)c1ccccc1 (centres unmarked) [Example 5]
3.87^[a]

Prompt: Return LogP (reported value) for this compound: Cc1nnnn1C(=NOCc1csc(NC(=O)C2(C)CC(c3ccccc3)=NO2)n1)c1ccccc1 (centres unmarked) [Example 14]
Completion: 3.64^[a]

Prompt: Supply measured LogP of Cn1nnnc1C(=NOCc1csc(NC(=O)C2CC(c3ccccc3)=NO2)n1)c1ccccc1 (centres unmarked) [Example 10] in your reply.
Completion: 3.31^[a]
